system: CD2F1 mice, L1210 leukemia ip, survival T/C; test: NCI In Vivo Anticancer Drug Screen. Data for tumor model L1210 Leukemia (intraperitoneal) in CD2F1 (CDF1) mice; details: endpoint: mean survival time; dose: 200.0 mg/kg/injection; schedule: Q01DX009 (ip); vehicle: saline; higher = longer survival
Inconclusive results and toxic doses are left out.
Below, each of the molecules is paired with its reported T/C value.

# count of solved cases: 5
{"MOLECULE": "CN(C)CCCCO", "ASSAY SYSTEM": "CD2F1 mice, L1210 leukemia ip, survival T/C", "T/C": "97 % of control"}
{"MOLECULE": "Nc1nc(=O)n(C2OC(CO)C(O)C2O)cc1F (configuration not stated)", "ASSAY SYSTEM": "CD2F1 mice, L1210 leukemia ip, survival T/C", "T/C": "101 % of control"}
{"MOLECULE": "CN(C)N=Nc1ccc(C(=O)O)cc1", "ASSAY SYSTEM": "CD2F1 mice, L1210 leukemia ip, survival T/C", "T/C": "90 % of control"}
{"MOLECULE": "C[N+](C)(C)CCO", "ASSAY SYSTEM": "CD2F1 mice, L1210 leukemia ip, survival T/C", "T/C": "102 % of control"}
{"MOLECULE": "NCCSCC(N)C(=O)O (configuration not stated)", "ASSAY SYSTEM": "CD2F1 mice, L1210 leukemia ip, survival T/C", "T/C": "104 % of control"}

What value of measured T/C is listed for COC(=O)CC(NC(=O)C(CSC(c1ccccc1)(c1ccccc1)c1ccccc1)NC(c1ccccc1)(c1ccccc1)c1ccccc1)C(=O)OC (configuration not stated) ?
89 % of control

Note, next up: CC(C)(C)[N+](=O)[O-]
93 % of control

###

Test system: CD2F1 mice, L1210 leukemia ip, survival T/C
Assay: NCI In Vivo Anticancer Drug Screen. Data for tumor model L1210 Leukemia (intraperitoneal) in CD2F1 (CDF1) mice
Settings: endpoint: mean survival time; dose: 200.0 mg/kg/injection; schedule: Q04DX003 (ip); vehicle: saline
Description: The antitumor activity of compounds was measured in mice bearing transplantable tumors. Survival or tumor size were measured and the results are expressed as the measurement made in the treated group (T) divided by the measurement made in the vehicle treated control group (C). The tumor model used in this assay is L1210 Leukemia (intraperitoneal) in CD2F1 (CDF1) mice
Toxic doses and inconclusive results are not listed. How the source made its calls: active means survival T/C of 150% or more; inactive means T/C below 125% in these data.
Pick one: TRUE = active, FALSE = inactive

{"COMPOUND": "CC(N)C(=O)NC(CO)C(=O)O (configuration not stated)", "ASSAY SYSTEM": "CD2F1 mice, L1210 leukemia ip, survival T/C", "LABEL CLASS": "FALSE"}
{"COMPOUND": "Cc1c(N)cccc1F", "ASSAY SYSTEM": "CD2F1 mice, L1210 leukemia ip, survival T/C", "LABEL CLASS": "FALSE"}

Recorded test outcome, item OCC1OC(Nc2ncnc3snnc23)C(O)C1O (configuration not stated)
TRUE

Note, next up: C=CCNC(=O)/C=C/C(=O)O
FALSE

Note, next up: O=C(c1ccccc1)C1(Br)CCCCC1
FALSE

Note, next up: CC(=O)Oc1ccc2c(c1)C(=O)CCCCCC(=O)O2
FALSE

Note, next up: O[C@@H](c1ccccc1)[C@@H](c1ccccc1)N1CCCCC1
FALSE
